Recorded PBM binding z-score, one value per entry.
Test system: VDR:RXRa (NR concentration 270 nM, RXRa partner concentration 90 nM)
Assay: PBM binding z-score (relative to random genomic background probes); higher = stronger binding; sequences stand for … in GC…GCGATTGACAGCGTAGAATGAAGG
# output: bare number, no unit

Here's what some known entries look like.
sequence | assayTarget | experimentalResult
TCTCAGAGGACACGAAGGTCAGAGCTTTCCAGAG | VDR:RXRa (NR concentration 270 nM, RXRa partner concentration 90 nM) | 2.75
ATCTCTAGGTAAAGTTCAGTGGAAGATCGATAGA | VDR:RXRa (NR concentration 270 nM, RXRa partner concentration 90 nM) | 1.44
CAGCCTTGGTCAGGGCCAGTATAGGAGGAACGTT | VDR:RXRa (NR concentration 270 nM, RXRa partner concentration 90 nM) | -0.707
CATCCAGGGTCAGCTAGGCCAGAGTAGGGACGGC | VDR:RXRa (NR concentration 270 nM, RXRa partner concentration 90 nM) | 3.97
ATATGTAGGTTAGCTGGGGCCATTCAGACTAGGC | VDR:RXRa (NR concentration 270 nM, RXRa partner concentration 90 nM) | 1.97

-- ask What measured PBM binding z-score goes with CGACCAAGGTCAATGCTAGGTCAGTGAAAGCATT ?
-- reply 4.69

-- ask What measured PBM binding z-score goes with ATCGAAAGGTCGAAGGTGAGTATACCCACCCGAA ?
-- reply 2.91

-- ask What measured PBM binding z-score goes with CGTCAAAGTTCAAGGGAACGTAACAGAAAGCAGC ?
-- reply 3.12

-- ask What measured PBM binding z-score goes with TCTCGGAAGACACGAAAGGTCAGAGCTCGACATC ?
-- reply 2.55

-- ask What measured PBM binding z-score goes with CCGAGTACGTTATGGGGCATTCAGGCAACGGTGA ?
-- reply 0.216
